assay: physchem; settings: octanol/buffer, pH 7.4
Description: Octanol/buffer distribution coefficient, log D of the compound at pH 7.4
assay.endpoint: logD

Before answering, review these 2 worked examples.
Fc1ccc2c(c1)ncc1cc3c(cc12)[nH]c1ccccc13 : 1.61
c1ccc2c(c1)ncc1cc3c(cc12)[nH]c1ccccc13 : -1.55

[1] O=C1c2[nH]c3ccccc3c2C(=O)c2cnc3ccccc3c21 [CALOTHRIXIN B]
[2] O=C1c2c[n+]([O-])c3ccccc3c2C(=O)c2[nH]c3ccccc3c21 [CALOTHRIXIN A]
[ask] Record comparison, field logD: mark the lower of 1 and 2 . Select an item and report its label.
[reply] 1

====

molecular target: DNA topoisomerase 2-alpha (Homo sapiens, UniProt P11388); assay: Inhibition of recombinant human topoisomerase 2 assessed as decrease in relaxation of supercoiled pBlue-Script KS(+) plasmid DNA incubated for 30 mins by ethidium bromide staining based gel electrophoresis method
Sequence (P11388 whole entry): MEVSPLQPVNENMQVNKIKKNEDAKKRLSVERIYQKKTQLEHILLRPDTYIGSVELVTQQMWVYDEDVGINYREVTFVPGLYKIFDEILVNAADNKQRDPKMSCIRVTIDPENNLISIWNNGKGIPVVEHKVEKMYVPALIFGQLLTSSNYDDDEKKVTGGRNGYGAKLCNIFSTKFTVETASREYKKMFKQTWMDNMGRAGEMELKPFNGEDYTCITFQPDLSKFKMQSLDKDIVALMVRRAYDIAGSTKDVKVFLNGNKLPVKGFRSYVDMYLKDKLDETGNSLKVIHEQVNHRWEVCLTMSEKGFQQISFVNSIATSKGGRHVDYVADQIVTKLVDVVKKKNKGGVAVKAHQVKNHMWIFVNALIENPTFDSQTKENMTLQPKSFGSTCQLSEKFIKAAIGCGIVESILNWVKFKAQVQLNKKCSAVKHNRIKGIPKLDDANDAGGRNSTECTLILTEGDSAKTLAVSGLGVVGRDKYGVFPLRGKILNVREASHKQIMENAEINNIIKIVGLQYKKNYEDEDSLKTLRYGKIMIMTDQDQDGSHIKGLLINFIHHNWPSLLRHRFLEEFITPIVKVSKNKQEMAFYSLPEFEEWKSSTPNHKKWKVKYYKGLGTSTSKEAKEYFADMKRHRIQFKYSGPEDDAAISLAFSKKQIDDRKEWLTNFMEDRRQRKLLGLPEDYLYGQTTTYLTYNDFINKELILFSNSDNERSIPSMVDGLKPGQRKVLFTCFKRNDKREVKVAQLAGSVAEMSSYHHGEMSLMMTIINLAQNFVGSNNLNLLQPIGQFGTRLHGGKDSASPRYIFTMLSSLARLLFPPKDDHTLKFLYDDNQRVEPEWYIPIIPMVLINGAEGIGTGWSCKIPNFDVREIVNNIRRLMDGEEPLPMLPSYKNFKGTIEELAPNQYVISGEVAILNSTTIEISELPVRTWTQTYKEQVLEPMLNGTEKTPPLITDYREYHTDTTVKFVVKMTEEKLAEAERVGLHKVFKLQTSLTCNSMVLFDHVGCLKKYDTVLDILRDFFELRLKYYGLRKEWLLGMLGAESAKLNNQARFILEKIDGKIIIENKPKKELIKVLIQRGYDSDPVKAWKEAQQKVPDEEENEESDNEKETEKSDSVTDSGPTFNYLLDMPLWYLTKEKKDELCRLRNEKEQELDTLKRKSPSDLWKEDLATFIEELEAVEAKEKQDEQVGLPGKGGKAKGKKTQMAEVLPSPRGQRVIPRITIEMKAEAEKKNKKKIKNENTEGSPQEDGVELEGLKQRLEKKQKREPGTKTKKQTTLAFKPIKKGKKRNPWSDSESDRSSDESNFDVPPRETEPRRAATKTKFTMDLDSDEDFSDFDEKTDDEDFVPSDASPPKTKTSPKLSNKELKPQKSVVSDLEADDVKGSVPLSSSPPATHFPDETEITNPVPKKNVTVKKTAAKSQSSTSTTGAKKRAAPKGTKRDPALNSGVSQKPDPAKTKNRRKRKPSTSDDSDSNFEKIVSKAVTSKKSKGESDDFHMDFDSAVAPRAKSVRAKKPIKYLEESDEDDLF
pIC50: −log10 of the molar value.
assay.endpoint: pIC50

Cc1c2cnc3ccccc3c2cc2[nH]c3ccccc3c12 : 4.72
c1ccc2c(c1)ncc1cc3c(cc12)[nH]c1ccccc13 : 4.63

====

# GI50 per entry for NCI-H460
assay.endpoint: GI50 (µM)

c1ccc2c(c1)ncc1cc3[nH]c4ccccc4c3cc12 : 10

[1] Nc1nc2ccccc2c2cc3c(cc12)[nH]c1ccccc13
[2] Fc1ccc2c(c1)ncc1cc3c(cc12)[nH]c1ccccc13
[ask] I would appreciate it if you could say which entry, 1 or 2 , has the lower GI50 value. In your reply, give the label of the chosen option.
[reply] 2

====

assay: physchem; conditions: octanol/water
Description: Octanol/water partition coefficient, log P of the compound
assay.endpoint: logP

[I] O=C1c2c[n+]([O-])c3ccccc3c2C(=O)c2[nH]c3ccccc3c21 [CALOTHRIXIN A]
[II] O=C1c2[nH]c3ccccc3c2C(=O)c2cnc3ccccc3c21 [CALOTHRIXIN B]
[III] Fc1ccc2c(c1)ncc1cc3c(cc12)[nH]c1ccccc13
[IV] c1ccc2c(c1)ncc1cc3c(cc12)[nH]c1ccccc13
[ask] Sort the entries above by logP, smallest first. Submit the labels in the order that the ranking request calls for.
[reply] II, IV, I, III
(II: -1.81, IV: -1.25, I: 1.32, III: 1.91)

====

tested on: HeLa
assay.endpoint: GI50 (nM)

Answered examples (3):
O=C1c2[nH]c3ccccc3c2C(=O)c2cnc3cc(Cl)c(Cl)cc3c21 : 1800
O=C1c2[nH]c3ccccc3c2C(=O)c2cnc3cc(F)c(Br)cc3c21 : 270
CC[C@@]1(O)C(=O)OCc2c1cc1n(c2=O)Cc2cc3ccccc3nc2-1 [CAMPTOTHECIN] : 190

[A] O=C1c2[nH]c3ccccc3c2C(=O)c2cnc3cc(Br)ccc3c21
[B] Nc1nc2cc(Cl)ccc2c2cc3[nH]c4ccccc4c3cc12
[C] c1ccc2c(c1)ncc1cc3[nH]c4ccccc4c3cc12
[ask] Sort the compounds on GI50; start with the lowest figure. Give the order by naming the labels one after another as requested.
[reply] A, B, C

====

Measured GI50 on HeLa follows.
assay.endpoint: GI50 (nM)

O=C1c2c[n+]([O-])c3ccccc3c2C(=O)c2[nH]c3ccccc3c21 : 80
Cc1c2cnc3cc(F)ccc3c2cc2[nH]c3ccccc3c12 : 50
O=C1c2[nH]c3ccccc3c2C(=O)c2cnc3ccc(Cl)cc3c21 : 500
O=C1c2cnc3c(Cl)cc(Cl)cc3c2C(=O)c2[nH]c3ccccc3c21 : 500
O=C1c2[nH]c3ccccc3c2C(=O)c2cnc3ccccc3c21 : 470
CN(C)CCCNc1nc2ccccc2c2cc3[nH]c4ccccc4c3cc12 : 1100

[a] Nc1nc2cc(F)ccc2c2cc3[nH]c4ccccc4c3cc12
[b] Nc1nc2ccccc2c2cc3c(cc12)[nH]c1ccccc13
[ask] Rank a against b by their GI50 values and give the higher one. Returns: label corresponding to the selected item.
[reply] b

[I] c1ccc2c(c1)ncc1cc3c(cc12)[nH]c1ccccc13
[II] O=C1c2[nH]c3ccccc3c2C(=O)c2cnc3cc(F)c(Cl)cc3c21
[ask] Of I versus II , which is the one with smaller reported GI50? Label of pick, please.
[reply] I
